Source listed as ChEMBL document CHEMBL4732158.

Please go through the items and note down their Ratio AUC.
- assay_notes: AUC ratio in orally dosed Sprague-Dawley rat blood assessed as phosphate metabolite to parent compound
- Type: ADME, organism-based
- measurement_conditions: in vivo, po

Solved cases below.
compound	result
CCCCCCCCc1ccc(CCC(N)(CO)CO)cc1	5.6
CCOCCCC1CCc2cc([C@H]3CC[C@](N)(CO)C3)ccc2C1 (single isomer, unassigned)	0.9
CCCCCC[C@@H]1CCc2cc([C@H]3CC[C@](N)(CO)C3)ccc2C1	2.5

# next compound below
Recorded Ratio AUC of COCCCCCC1CCc2cc([C@H]3CC[C@](N)(CO)C3)ccc2C1 (single isomer, unassigned; 24) , please.
0.3

###

- assay_notes: Ratio of drug metabolism in Lewis rat blood assessed as phosphate ester metabolite to parent drug at 2 mg/kg, po measured at 24 hrs by LC-MS/MS analysis
- Type: ADME, organism-based
- measurement_conditions: in vivo
Please use label 1 for Ratio under 1 and label 0 for everything else, ties included.

A selection of reference data follows.
compound	class_assignment
COCCCCC1CCc2cc([C@H]3CC[C@](N)(CO)C3)ccc2C1 (stereo in doubt; 13a)	label 0
CCCOCCOC1CCc2cc([C@H]3CC[C@](N)(CO)C3)ccc2C1 (some centres undefined)	label 0
COCCCCCCC1CCc2cc([C@H]3CC[C@](N)(CO)C3)ccc2C1 (stereo in doubt; 25a)	label 0
CCOCCCC1CCc2cc([C@H]3CC[C@](N)(CO)C3)ccc2C1 (single isomer, unassigned)	label 0
COCCCCCC1CCc2cc([C@H]3CC[C@](N)(CO)C3)ccc2C1 (single isomer, unassigned; 24)	label 0

Consider the compound CCCSCC[C@@H]1CCc2cc([C@H]3CC[C@](N)(CO)C3)ccc2C1 . Is its Ratio strictly less than 1?
label 1

Consider the compound COCCCC1CCc2cc([C@H]3CC[C@](N)(CO)C3)ccc2C1 (stereo in doubt; 22a) . Is its Ratio strictly less than 1?
label 0

Consider the compound COCCCC1CCc2cc([C@H]3CC[C@](N)(CO)C3)ccc2C1 (stereo in doubt; 22b) . Is its Ratio strictly less than 1?
label 1

Consider the compound COCCCCC1CCc2cc([C@H]3CC[C@](N)(CO)C3)ccc2C1 (stereo in doubt; 13b) . Is its Ratio strictly less than 1?
label 1

###

- assay_notes: Terminal half life in cynomolgus monkey at 1 mg/kg, po or 1 mg/kg, iv
- Format: ADME, organism-based, Macaca fascicularis
- measurement_conditions: in vivo, read-out: beta t1/2 (converted)
Please go through the items and note down their half-life.
Give bare numbers, in h.

molecule	readout_units	half-life
COCCCCCC1CCc2cc([C@H]3CC[C@](N)(CO)C3)ccc2C1 (single isomer, unassigned; 24)	h	17

Recorded half-life of CCOCCCC1CCc2cc([C@H]3CC[C@](N)(CO)C3)ccc2C1 (single isomer, unassigned) , please.
21

###

- assay_notes: Drug metabolism in Lewis rat blood assessed as concentration of parent compound at 1 mg/kg, po measured at 24 hrs by LC-MS/MS analysis
- Assay type: ADME, organism-based
- measurement_conditions: Lewis, blood, read-out: Ct
endpoint_name: concentration at 24 h (nM)
Give bare numbers, in nM.

Solved cases below.
compound	readout_units	concentration at 24 h
CCC/C=C/CC1CCc2cc([C@H]3CC[C@](N)(CO)C3)ccc2C1 (single isomer, unassigned)	nM	51
CC/C=C\CC[C@@H]1CCc2cc([C@H]3CC[C@](N)(CO)C3)ccc2C1	nM	180
CCCCCOC[C@@H]1CCc2cc([C@H]3CC[C@](N)(CO)C3)ccc2C1	nM	28
CCC/C=C\CC1CCc2cc([C@H]3CC[C@](N)(CO)C3)ccc2C1 (single isomer, unassigned)	nM	14
CCCC/C=C/[C@@H]1CCc2cc([C@H]3CC[C@](N)(CO)C3)ccc2C1	nM	77

Here are 3 compounds. What values of concentration at 24 h were reported for them?
1. CCCC/C=C\[C@@H]1CCc2cc([C@H]3CC[C@](N)(CO)C3)ccc2C1
2. C=CCCCC[C@@H]1CCc2cc([C@H]3CC[C@](N)(CO)C3)ccc2C1
3. CCCCCOC[C@H]1CCc2cc([C@H]3CC[C@](N)(CO)C3)ccc2C1

[24, 40, 18]

###

- target_entity: UniProt P21453
- assay_notes: Agonist activity at human recombinant C-terminal GFP-fused S1P1 expressed in CHO cells assessed as induction of receptor internalization incubated for 50 mins by fluorescence based confocal laser scanning microscopic analysis
- Type: cell-based
endpoint_name: EC50 (nM)
Give bare numbers, in nM.

molecule	quantitative_result
CCOCCC[C@H]1CCc2cc([C@H]3CC[C@](N)(COP(=O)(O)O)C3)ccc2C1	0.4

# next compound below
Recorded EC50 of COCCCCC[C@@H]1CCc2cc([C@H]3CC[C@](N)(COP(=O)(O)O)C3)ccc2C1 , please.
4.9

###

- target_entity: Sphingosine 1-phosphate receptor 1 (Homo sapiens, UniProt P21453)
- Sequence (P21453 whole entry): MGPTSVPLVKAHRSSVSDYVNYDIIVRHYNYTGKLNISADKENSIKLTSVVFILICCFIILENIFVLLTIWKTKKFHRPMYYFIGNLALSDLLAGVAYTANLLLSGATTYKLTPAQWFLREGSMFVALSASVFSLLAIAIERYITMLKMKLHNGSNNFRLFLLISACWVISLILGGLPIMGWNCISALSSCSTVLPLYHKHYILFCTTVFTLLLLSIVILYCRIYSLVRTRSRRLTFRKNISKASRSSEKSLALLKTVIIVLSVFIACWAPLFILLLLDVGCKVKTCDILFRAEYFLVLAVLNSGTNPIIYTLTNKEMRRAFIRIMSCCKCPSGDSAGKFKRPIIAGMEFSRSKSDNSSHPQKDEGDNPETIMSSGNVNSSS
- assay_notes: Agonist activity at recombinant human S1P1 expressed in CHO cell membranes assessed as stimulation of [35S]-GTPgammaS binding measured after 45 mins by liquid scintillation counting method
- Format: functional, Cell membrane
Please go through the items and note down their pEC50.
Numbers only, as −log10 of the molar value.

molecule	target_entity	endpoint_name	quantitative_result
COCCCCC[C@@H]1CCc2cc([C@H]3CC[C@](N)(COP(=O)(O)O)C3)ccc2C1	Sphingosine 1-phosphate receptor 1 (Homo sapiens, UniProt P21453)	pEC50	8.68

# next compound below
Recorded pEC50 of CCOCCC[C@H]1CCc2cc([C@H]3CC[C@](N)(COP(=O)(O)O)C3)ccc2C1 , please.
8.68

###

- assay_notes: Volume of distribution at steady state in Sprague- Dawley rat at 1 mg/kg, po or 1 mg/kg, iv
- Format: ADME, organism-based
- measurement_conditions: in vivo, read-out: Vdss
endpoint_name: Vd (L/kg)
Give bare numbers, in L/kg.

Recorded Vd of CCOCCCC1CCc2cc([C@H]3CC[C@](N)(CO)C3)ccc2C1 (single isomer, unassigned) , please.
12

###

- assay_notes: Pulmonary toxicity in Lewis rat assessed as fold elevation of BAL protein content at 2 mg/kg, po by chemistry analyzer based analysis relative to control
- Format: organism-based
- measurement_conditions: in vivo
endpoint_name: fold change (FC)
Answers are plain numbers.

Solved cases below.
compound	endpoint_name	quantitative_result
CCCSCC[C@@H]1CCc2cc([C@H]3CC[C@](N)(CO)C3)ccc2C1	fold change (FC)	1.1
CCOCCCC1CCc2cc([C@H]3CC[C@](N)(CO)C3)ccc2C1 (single isomer, unassigned)	fold change (FC)	1.2
COCCCCCCC1CCc2cc([C@H]3CC[C@](N)(CO)C3)ccc2C1 (stereo in doubt; 25b)	fold change (FC)	1.2

# next compound below
Recorded fold change (FC) of COCCCCCC1CCc2cc([C@H]3CC[C@](N)(CO)C3)ccc2C1 (single isomer, unassigned; 23) , please.
1.9

###

- assay_notes: Cardiotoxicity in human iPSC derived cardiomyocytes assessed as change in heart rate at 10 nM measured over 2 hrs by multi-electrode array relative to control
- Assay type: toxicity, cell-based
- measurement_conditions: stem cell-derived cardiomyocyte, 0.01 µM
endpoint_name: Activity
Provide a numeric answer, followed by its unit.

Solved cases below.
compound	Activity
COCCCCC1CCc2cc([C@H]3CC[C@](N)(CO)C3)ccc2C1 (stereo in doubt; 13b)	-29%
CCCCCOC1CCc2cc([C@H]3CC[C@](N)(CO)C3)ccc2C1 (stereo in doubt; 10b)	-49%

# next compound below
Recorded Activity of COCCCC1CCc2cc([C@H]3CC[C@](N)(CO)C3)ccc2C1 (stereo in doubt; 22b) , please.
-25%

###

Please go through the items and note down their Activity.
- assay_notes: Reduction in circulating lymphocytes count in Lewis rat at 1 mg/kg, po measured at 24 hrs by hematology analyzer based analysis
- Assay type: organism-based
- Design: scale not given: the % may be the effect or the level left
- measurement_conditions: in vivo
One number for each entry, in %.

Solved cases below.
molecule	Activity, %
CCC/C=C\CC1CCc2cc([C@H]3CC[C@](N)(CO)C3)ccc2C1 (single isomer, unassigned)	71
CC/C=C/CC[C@@H]1CCc2cc([C@H]3CC[C@](N)(CO)C3)ccc2C1	74
CCC/C=C/CC1CCc2cc([C@H]3CC[C@](N)(CO)C3)ccc2C1 (single isomer, unassigned)	62
CCCCCCOC1CCc2cc([C@H]3CC[C@](N)(CO)C3)ccc2C1 (stereo in doubt; 30a)	82

# next molecule below
Recorded Activity of CC/C=C\CC[C@@H]1CCc2cc([C@H]3CC[C@](N)(CO)C3)ccc2C1 , please.
69

###

- assay_notes: Cardiotoxicity in human iPSC derived cardiomyocytes assessed as change in heart rate at 10 nM measured over 2 hrs by multi-electrode array relative to control
- Assay type: toxicity, cell-based
- measurement_conditions: stem cell-derived cardiomyocyte, 0.01 µM
Please use condition met for Activity under -40% and condition not met for everything else, ties included.

compound	class_assignment
CC/C=C\CC[C@@H]1CCc2cc([C@H]3CC[C@](N)(CO)C3)ccc2C1	condition not met
CCC/C=C\CC1CCc2cc([C@H]3CC[C@](N)(CO)C3)ccc2C1 (single isomer, unassigned)	condition not met
CCOCCCC1CCc2cc([C@H]3CC[C@](N)(CO)C3)ccc2C1 (single isomer, unassigned)	condition not met
CCCCSCC1CCc2cc([C@H]3CC[C@](N)(CO)C3)ccc2C1 (single isomer, unassigned)	condition not met
CCSCCCC1CCc2cc([C@H]3CC[C@](N)(CO)C3)ccc2C1 (single isomer, unassigned)	condition met

Moving on to another compound below.
Consider the compound CCCSCCC1CCc2cc([C@H]3CC[C@](N)(CO)C3)ccc2C1 (single isomer, unassigned) . Is its Activity strictly less than -40%?
condition met
